Assay: NCI Yeast Anticancer Drug Screen. Data for the rad50 strain (AID 155);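 also: 0% = growth of vehicle-only cultures of the same strain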
Details: S. cerevisiae rad50 strain growth inhibition; at 50.0 µM; stronger effect = higher value
The panel holds about 79,000 compounds, 15% with a hit somewhere; the sample as a whole holds those more often.
Examples of compounds with documented growth inhibition follow.
Number in %, nothing else.

{"compound": "Cc1ccc(N=NN(C)C)cc1", "output_unit": "%", "meas_value": 2.55}

Need growth inhibition of C=C(CN(C)C)C(=O)c1ccc(C(=O)C(=C)CN(C)C)cc1 , thanks.
-1.4

Need growth inhibition of O=C(OCc1ccccc1)c1ccccc1O , thanks.
39.1

Need growth inhibition of Nc1c(-c2ccccc2[N+](=O)[O-])nc2ccccn12 , thanks.
-16.1

Need growth inhibition of CC1CCC(OC(=O)CC#N)CC1 (configuration not stated) , thanks.
-2.15

====

Experiment: NCI Yeast Anticancer Drug Screen. Data for the sgs1 mgt1 strain (AID 161);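 also: 0% = growth of cultures given vehicle only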
Conditions: S. cerevisiae sgs1 mgt1 strain, at 50.0 µM, stronger effect = higher value
This is part of a sample that, as a whole, favours compounds with a hit. Of some 79,000 tested, about 15% had one in any assay.
endpoint: growth inhibition (%)
Number in %, nothing else.

Solved entries (count: 3):
{"compound": "CC(=O)OCC1C(=O)OCC1C(=O)N1Cc2cc3ccccc3nc2C1 (stereo unspecified)", "endpoint": "growth inhibition", "meas_value": 13.7}
{"compound": "CCCCCCC(O)C/C=C/CCCCCC/C(C(=O)OC)=C(/O)C(=O)OCC (stereo unspecified)", "endpoint": "growth inhibition", "meas_value": 11.5}
{"compound": "Cc1[nH]c(=O)nc2nc3ccc(Cl)cc3c(NCCNCCO)c12", "endpoint": "growth inhibition", "meas_value": 24.1}

Need growth inhibition of COC(=O)C12C3C4C1C1C2C3C41C(=O)N(C(C)C)C(C)C (stereo unspecified) , thanks.
-3.4

Need growth inhibition of C=C(C)CNC(=S)N(N)c1ccc(OC)cc1 , thanks.
16.6

Need growth inhibition of c1ccc(B2OCC(C3OB(c4ccccc4)OC4COB(c5ccccc5)OC43)O2)cc1 (stereo unspecified) , thanks.
-1.2

====

Assay: NCI Yeast Anticancer Drug Screen. Data for the mec2-1 strain (AID 157)
Conditions: S. cerevisiae mec2-1 strain, at 50.0 µM, stronger effect = higher value
Protocol: Growth inhibition of yeast strains with defined genetic alterations is measured as a screen for potential anti-cancer activity. Selected strains with alterations in DNA damage repair or cell cycle control were exposed to compounds and growth inhibition was measured relative to vehicle treated controls. The strain used in this assay is mec2-1
Compounds without any hit were thinned out: in the full panel of roughly 79,000, 15% have a hit.
Examples of compounds with documented growth inhibition follow.
Number in %, nothing else.

Solved entries (count: 4):
{"compound": "O=C(c1ccccc1)C(CBr)C(Br)c1ccccc1 (stereo unspecified)", "growth inhibition [%]": 24.7}
{"compound": "Brc1nccs1", "growth inhibition [%]": -21.4}
{"compound": "CC(=O)Oc1cccn2c(C(=O)C(=O)c3ccc4c(OC(C)=O)cccn34)ccc12", "growth inhibition [%]": 1.8}
{"compound": "CCOC(=O)c1ccc(C=O)cc1", "growth inhibition [%]": -5.75}

Need growth inhibition of [Br][Pt+2][Br].[NH-]c1cccc(F)c1.[NH-]c1cccc(F)c1 , thanks.
11.4

Need growth inhibition of CC(=O)[C@H]1CC[C@H]2[C@@H]3CC[C@@H]4CC(=O)CC[C@]4(C)[C@H]3[C@@H]3O[C@@H]3[C@]12C , thanks.
5.4

Need growth inhibition of CNCC(OCCc1ccccc1)c1ccc(O)c(O)c1 (stereo unspecified) , thanks.
-1.9

Need growth inhibition of Cn1c(=O)c2c(ncn2CCNC(c2ccccc2)c2cccc(Cl)c2)n(C)c1=O (stereo unspecified) , thanks.
-8.05

Need growth inhibition of ClC(Cl)(Cl)c1ccc(C2OCCO2)cc1 , thanks.
-6.8

Need growth inhibition of CCc1nn2c(=O)nc(Oc3ccccc3)nc2s1 , thanks.
8.85

Need growth inhibition of NC(N)=N/N=C(/c1nc2ccc([N+](=O)[O-])cc2[nH]c1=O)C(O)c1ccco1 (stereo unspecified) , thanks.
-25

Need growth inhibition of c1ccc(CC/C(=N/N=C(\CCc2ccccc2)c2ccccc2)c2ccccc2)cc1 , thanks.
8.05

====

Assay: NCI Yeast Anticancer Drug Screen. Data for the bub3 strain (AID 167)
Details: S. cerevisiae bub3 mutant strain, at 50.0 µM, stronger effect = higher value
Compounds without any hit were thinned out: in the full panel of roughly 79,000, 15% have a hit.
Examples of compounds with documented growth inhibition follow.
Number in %, nothing else.

Need growth inhibition of COc1cc(NS(C)(=O)=O)ccc1Nc1c2ccccc2nc2c1[nH]c1ccc(NC3OC(CO)C(O)C(O)C3O)cc12 (stereo not drawn) , thanks.
-26.3

====

Assay: NCI Yeast Anticancer Drug Screen. Data for the bub3 strain (AID 167)
Conditions: S. cerevisiae bub3 mutant strain, at 50.0 µM, stronger effect = higher value
Procedure: Growth inhibition of yeast strains with defined genetic alterations is measured as a screen for potential anti-cancer activity. Selected strains with alterations in DNA damage repair or cell cycle control were exposed to compounds and growth inhibition was measured relative to vehicle treated controls. The strain used in this assay is bub3
About 79,000 compounds went through this panel and 15% of them were active in at least one assay; those are over-represented in the sample as a whole.
Examples of compounds with documented growth inhibition follow.
Number in %, nothing else.

{"smiles_record": "Cn1c(=O)c2cc(O)cnc2n(C)c1=O", "output_unit": "%", "meas_value": -7.35}
{"smiles_record": "C/C(CC(O)(C(F)(F)Cl)C(F)(F)Cl)=N\\Nc1ccccc1", "output_unit": "%", "meas_value": -0.9}
{"smiles_record": "Cc1ccc(C(=N)c2ccccc2Cc2ccccc2)cc1C", "output_unit": "%", "meas_value": 7.9}
{"smiles_record": "N#Cc1c(-c2ccccc2)[nH]c2ccc(Cl)cc2c1=O", "output_unit": "%", "meas_value": -9.75}
{"smiles_record": "CN(C)/N=N/c1nc2c(c(=O)n(C)c(=O)n2C)n1C", "output_unit": "%", "meas_value": -5.4}

Would you kindly look at the next entry?
Need growth inhibition of O=C(O)c1cc(-c2ccccc2)ccc1O , thanks.
-2.6

====

Test: NCI Yeast Anticancer Drug Screen. Data for the cln2 rad14 strain (AID 165);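 also: 0% = growth equal to vehicle treated cultures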
Conditions: S. cerevisiae cln2 rad14 strain, at 50.0 µM, stronger effect = higher value
Compounds without any hit were thinned out: in the full panel of roughly 79,000, 15% have a hit. Where a SMILES comes first, the peptide text is derived from it. The star is where a group is joined. Boc = CC(C)(C)OC(=O)*; OtBu = CC(C)(C)O*
endpoint: growth inhibition (%)
Number in %, nothing else.

Solved entries (count: 8):
{"molecule": "CC(C)(C)OC(=O)CC(NC(=O)OC(C)(C)C)C(=O)NC(Cc1ccccc1)C(N)=O (configuration not stated) (Boc-Asp(OtBu)-Phe-NH2; configuration not given here)", "growth inhibition, %": 35.5}
{"molecule": "O=C(N/N=C/c1cc(Br)cc(Br)c1O)c1ccccc1", "growth inhibition, %": 3.85}
{"molecule": "CC(=O)Nc1ccc(C(=O)NN2C(=O)C(Cl)C2c2ccccc2O)cc1 (configuration not stated)", "growth inhibition, %": 0.15}
{"molecule": "CN1CCN(C(=O)/C(=C/c2ccccc2)NC(=O)c2ccccc2)CC1", "growth inhibition, %": -12.7}
{"molecule": "O=C(Nc1cc(Cl)ccc1Cl)Oc1c(Cl)cc(Cl)c(Cl)c1[N+](=O)[O-]", "growth inhibition, %": -33.8}
{"molecule": "O=c1nc(Nc2ccccc2)ccn1C1OC(CO)C(O)C1O (configuration not stated)", "growth inhibition, %": 12}
{"molecule": "COC(=O)/C(=N\\N)C(C(=O)C(=O)Nc1cc(Cl)ccc1Cl)c1nc2ccc([N+](=O)[O-])cc2[nH]c1=O (configuration not stated)", "growth inhibition, %": -20.2}
{"molecule": "O=C1c2ccccc2C(=O)c2nc3ccc(Cl)cc3cc21", "growth inhibition, %": 21.3}

Need growth inhibition of CC(Cc1nc2ccccc2[nH]1)Cc1nc2ccccc2[nH]1 , thanks.
21.4

Need growth inhibition of CCCCN(CCCC)CC(CC)N(CCCC)CCCC (configuration not stated) , thanks.
-38.6

Need growth inhibition of CC(C)(C)c1cc(C(=O)O)c2c(c1)C(=O)OC2(c1ccccc1)c1ccccc1C(=O)O (configuration not stated) , thanks.
9.95

Need growth inhibition of Cc1ccc(O)c(C2C=CCC2)c1 (configuration not stated) , thanks.
7.5

====

Assay: NCI Yeast Anticancer Drug Screen. Data for the sgs1 mgt1 strain (AID 161);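 also: 0% = growth of cultures given vehicle only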
Settings: S. cerevisiae sgs1 mgt1 strain, at 50.0 µM, stronger effect = higher value
Experimental: Growth inhibition of yeast strains with defined genetic alterations is measured as a screen for potential anti-cancer activity. Selected strains with alterations in DNA damage repair or cell cycle control were exposed to compounds and growth inhibition was measured relative to vehicle treated controls. The strain used in this assay is sgs1 mgt1
About 79,000 compounds went through this panel and 15% of them were active in at least one assay; those are over-represented in the sample as a whole.
endpoint: growth inhibition (%)
Number in %, nothing else.

Solved entries (count: 4):
{"compound": "CCCCCCCCSC(SCCCCCCCC)=C1C(=O)N(c2ccccc2)N=C1C", "endpoint": "growth inhibition", "output_unit": "%", "meas_value": 2.2}
{"compound": "COC(=O)C(C(=O)C(=O)Nc1ccc(C)cc1)c1nc2ccc([N+](=O)[O-])cc2[nH]c1=O (configuration not stated)", "endpoint": "growth inhibition", "output_unit": "%", "meas_value": 0.8}
{"compound": "CCOC(=O)COc1cc2c(cc1C(CC)c1ccccc1)OCO2 (configuration not stated)", "endpoint": "growth inhibition", "output_unit": "%", "meas_value": -3.25}
{"compound": "N#C/C=C/c1ccc(Cl)cc1", "endpoint": "growth inhibition", "output_unit": "%", "meas_value": 7.2}

Need growth inhibition of COC1(C2COc3cc(OCc4ccccc4)ccc3C2=O)C=C2OCOC2=CC1=O (configuration not stated) , thanks.
-6.6

Need growth inhibition of N#CN1CCC2CC(=O)CCC2C1 (configuration not stated) , thanks.
-6.5

Need growth inhibition of Cn1c(=O)c2[nH]c(SCc3cccnc3)nc2n(C)c1=O , thanks.
6.85

Need growth inhibition of C=CCCCCCCCCC(=O)NCCCN1CCOCC1 , thanks.
93.5

Need growth inhibition of CC(C)SC(CC(O)C(O)COC(=O)c1ccccc1)SC(C)C (configuration not stated) , thanks.
6.15

Need growth inhibition of C=C(CN(C)C)c1ccccn1 , thanks.
-2.3

Need growth inhibition of C=CCNC(=O)N(CCCC(NC(C)=O)C(=O)NCc1ccccc1)Cc1ccccc1 (configuration not stated) , thanks.
-8.85

Need growth inhibition of CCOP(=O)(OCC)c1nc(Cl)nc(Cl)c1SC(F)(F)F , thanks.
14.5
